The origin of these recorded values is patent US9012651B2.

target_of_assay: human TRPV3 receptors (Homo sapiens (Human))
Sequence (Q8NET8 whole entry): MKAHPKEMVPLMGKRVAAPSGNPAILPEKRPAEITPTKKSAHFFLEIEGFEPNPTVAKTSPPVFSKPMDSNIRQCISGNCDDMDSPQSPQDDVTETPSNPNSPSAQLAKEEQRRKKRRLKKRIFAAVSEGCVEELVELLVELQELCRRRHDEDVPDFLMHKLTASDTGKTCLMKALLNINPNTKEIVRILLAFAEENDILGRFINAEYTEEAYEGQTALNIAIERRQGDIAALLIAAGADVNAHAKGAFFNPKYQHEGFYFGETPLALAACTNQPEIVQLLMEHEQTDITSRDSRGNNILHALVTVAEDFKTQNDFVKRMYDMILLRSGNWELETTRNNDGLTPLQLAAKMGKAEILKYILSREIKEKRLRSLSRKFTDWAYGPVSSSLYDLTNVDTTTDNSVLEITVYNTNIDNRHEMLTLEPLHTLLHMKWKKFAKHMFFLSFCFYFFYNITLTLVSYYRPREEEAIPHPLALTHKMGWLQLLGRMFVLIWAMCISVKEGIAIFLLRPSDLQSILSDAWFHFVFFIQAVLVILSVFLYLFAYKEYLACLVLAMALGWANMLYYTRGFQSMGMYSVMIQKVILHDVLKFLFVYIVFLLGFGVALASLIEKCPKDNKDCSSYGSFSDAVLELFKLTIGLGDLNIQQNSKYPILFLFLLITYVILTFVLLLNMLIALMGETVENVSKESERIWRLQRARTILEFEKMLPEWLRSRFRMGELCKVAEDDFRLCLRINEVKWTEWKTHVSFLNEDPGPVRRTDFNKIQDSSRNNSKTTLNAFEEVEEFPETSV
experiment_summary: Calcium flux assay (FLIPR TETRA), inhibition of the 2-APB response
measurement_setup: recombinant HEK293 cells stably expressing TRPV3, Calcium-4 dye, 2-APB at its EC80
property_label: IC50 (nM)

(I) CC(C)[C@H](CO)NCc1nc(-c2cccc(-n3cccn3)c2)ccc1F
(II) CC(C)[C@H](CO)NCc1nc(C#CCCC2CCCCC2)ccc1F
(III) CC(C)[C@H](CO)NCc1nc(-c2ccnc(N3CCOCC3)c2)ccc1F
List the items above again, this time ordered by increasing IC50. Provide your answer as the labels ordered per the instruction.
II, I, III

(A) CC(C)[C@H](CO)NCc1nc(N2CCCC(C(F)(F)F)C2)ccc1F (some centres unmarked)
(B) CC(C)[C@H](CO)NCc1nc(N2CCc3cccc(F)c3C2)ccc1F
(C) CC(C)[C@H](CO)NCc1nc(C2CCCN(C(=O)OC(C)(C)C)C2)ccc1F (some centres unmarked)
(D) CCC[C@H](CO)NCc1ccnc(-c2ccc(C(F)(F)F)cc2)n1
Rank order required: IC50, descending. As an answer, provide the labels arranged in the order called for.
D, C, A, B

(I) CC(C)[C@H](CO)NCc1nc(-c2ccc(Cl)cc2)ccc1F
(II) OC[C@@H]1[C@@H]2CC[C@@H](C2)[C@@H]1NCc1cccc(-c2ccc(C(F)(F)F)cc2)n1
// task: argmin of IC50 over [ I , II ] # respond with the chosen item's label
I
